Target: T1, cloned human SRIF receptor SSTR5 (human, UniProt P35346 1-364)
T1 construct: whole, on cells; assayed as cryostat sections of membrane pellets of the transfected cells; also called hSSTR5
T1 sequence (P35346 whole entry): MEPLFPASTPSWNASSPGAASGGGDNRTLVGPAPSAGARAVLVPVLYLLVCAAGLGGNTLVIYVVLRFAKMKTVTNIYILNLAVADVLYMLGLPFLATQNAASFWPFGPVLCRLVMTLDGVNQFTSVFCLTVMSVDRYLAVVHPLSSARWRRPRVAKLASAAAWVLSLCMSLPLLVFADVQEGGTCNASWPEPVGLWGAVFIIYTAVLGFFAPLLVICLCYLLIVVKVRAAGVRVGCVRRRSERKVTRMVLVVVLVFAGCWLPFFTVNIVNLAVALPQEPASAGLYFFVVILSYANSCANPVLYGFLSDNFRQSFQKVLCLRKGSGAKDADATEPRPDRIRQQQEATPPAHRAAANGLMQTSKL
Experiment: radioligand displacement (125I-[Leu8,D-Trp22,Tyr25]SRIF-28), membrane pellet sections
Numbered stars: 1 amine (or outer) side, 2 acyl side, 3 side chain; on linkers, the order of the positions; unused ones are H or OH. Bridge positions count the residues as written; N and C are the ends. Square brackets hold non-standard residues; d marks the D form. * marks the point of attachment. (2S,3R)βMe2Nal = L-threo-(2S,3R)-β-methyl-2-naphthylalanine, (2S,3R)-2-amino-3-(naphthalen-2-yl)butanoic acid, C[C@H](c1ccc2ccccc2c1)[C@H](N[*:1])C(=O)[*:2]; threo‑(2S,3R)CβMe‑2Nal = threo-(2S,3R)-β-methyl-2-naphthylalanine (L-threo), C[C@H](c1ccc2ccccc2c1)[C@H](N[*:1])C(=O)[*:2]; d2Nal(3S-Me) = C[C@@H](c1ccc2ccccc2c1)[C@@H](N)C(=O)O; Phe(4-NH2) = Nc1ccc(C[C@H](N)C(=O)O)cc1; 2Nal = N[C@@H](Cc1ccc2ccccc2c1)C(=O)O; Carbamoyl = NC(=O)*
Each entry below carries its reported log10(IC50).
Measured Quantity: log10(IC50) (log10 of the value in nM)

[
  {
    "Binder": "H-[dC]FY[(2S,3R)βMe2Nal]KTFC-OH (disulfide 1-8; SMILES C[C@H](c1ccc2ccccc2c1)[C@@H]1NC(=O)[C@H](Cc2ccc(O)cc2)NC(=O)[C@H](Cc2ccccc2)NC(=O)[C@H](N)CSSC[C@@H](C(=O)O)NC(=O)[C@H](Cc2ccccc2)NC(=O)[C@H]([C@@H](C)O)NC(=O)[C@H](CCCCN)NC1=O, also called Peptide No. 16A; Peptide 16A) [(cyclo)H-D-Cys-Phe-Tyr-threo-(2S,3R)C^βMe-2Nal-Lys-Thr-Phe-Cys-OH]",
    "log10(IC50)": 2.82
  },
  {
    "Binder": "H-[dC]FY[d2Nal(3S-Me)]KTFC-OH (disulfide 1-8, also called Peptide No. 16) [(cyclo)H-D-Cys-Phe-Tyr-threo-(2R,3S)C^βMe-2Nal-Lys-Thr-Phe-Cys-OH]",
    "log10(IC50)": 1.43
  },
  {
    "Binder": "H-CF[Phe(4-NH2)][2Nal]KTFC-OH (disulfide 1-8; SMILES C[C@@H](O)[C@@H]1NC(=O)[C@H](CCCCN)NC(=O)[C@H](Cc2ccc3ccccc3c2)NC(=O)[C@H](Cc2ccc(N)cc2)NC(=O)[C@H](Cc2ccccc2)NC(=O)[C@@H](N)CSSC[C@@H](C(=O)O)NC(=O)[C@H](Cc2ccccc2)NC1=O, synthetic cyclic octapeptide; also called Peptide 5; Peptide No. 5) [(cyclo)H-Cys-Phe-4Aph-2Nal-Lys-Thr-Phe-Cys-OH]",
    "log10(IC50)": 2.79
  },
  {
    "Binder": "Carbamoyl-CF[Phe(4-NH2)][dW]KTFC-OH (disulfide 1-8; SMILES C[C@@H](O)[C@@H]1NC(=O)[C@H](CCCCN)NC(=O)[C@@H](Cc2c[nH]c3ccccc23)NC(=O)[C@H](Cc2ccc(N)cc2)NC(=O)[C@H](Cc2ccccc2)NC(=O)[C@@H](NC(N)=O)CSSC[C@@H](C(=O)O)NC(=O)[C@H](Cc2ccccc2)NC1=O, synthetic cyclic octapeptide; also called Peptide No. 4) [(cyclo)Cbm-Cys-Phe-4Aph-D-Trp-Lys-Thr-Phe-Cys-OH]",
    "log10(IC50)": 2.01
  },
  {
    "Binder": "H-CF[Phe(4-NH2)]WKTYC-OH (disulfide 1-8, synthetic cyclic octapeptide; also called Peptide 9; Peptide No. 9) [(cyclo)H-Cys-Phe-4Aph-Trp-Lys-Thr-Tyr-Cys-OH]",
    "log10(IC50)": 2.38
  },
  {
    "Binder": "Carbamoyl-CF[Phe(4-NH2)]WKTYC-OH (disulfide 1-8, synthetic cyclic octapeptide; also called Peptide No. 10) [(cyclo)Cbm-Cys-Phe-4Aph-Trp-Lys-Thr-Tyr-Cys-OH]",
    "log10(IC50)": 2.75
  },
  {
    "Binder": "H-CFY[threo‑(2S,3R)CβMe‑2Nal]KTFC-OH (disulfide 1-8; SMILES C[C@H](c1ccc2ccccc2c1)[C@@H]1NC(=O)[C@H](Cc2ccc(O)cc2)NC(=O)[C@H](Cc2ccccc2)NC(=O)[C@@H](N)CSSC[C@@H](C(=O)O)NC(=O)[C@H](Cc2ccccc2)NC(=O)[C@H]([C@@H](C)O)NC(=O)[C@H](CCCCN)NC1=O, later-eluting isomer, determined to incorporate the L-threo-β-Me-2Nal residue; also called Peptide No. 17A; 17a) [(cyclo)H-Cys-Phe-Tyr-threo-(2S,3R)C^βMe-2Nal-Lys-Thr-Phe-Cys-OH]",
    "log10(IC50)": 2.56
  },
  {
    "Binder": "H-CFAWKTFC-OH (disulfide 1-8; SMILES C[C@@H]1NC(=O)[C@H](Cc2ccccc2)NC(=O)[C@@H](N)CSSC[C@@H](C(=O)O)NC(=O)[C@H](Cc2ccccc2)NC(=O)[C@H]([C@@H](C)O)NC(=O)[C@H](CCCCN)NC(=O)[C@H](Cc2c[nH]c3ccccc23)NC1=O, synthetic cyclic octapeptide; also called Peptide No. 12) [des-AA^1,2,4,5,12,13-[Ala^7]SRIF, (cyclo)H-Cys-Phe-Ala-Trp-Lys-Thr-Phe-Cys-OH]",
    "log10(IC50)": 2.80
  }
]
